The values you see were collected from patent US10485235B2.

Test system: blackgrass (Alopecurus myosuroides)
Test: Test A postemergence, blackgrass
Assay type: in vivo
Settings: Alopecurus myosuroides, post-emergence, 240 h; 500 g ai/ha, postemergence; 0 to 100 scale, 0 is no effect, 100 is complete control; approximately 10 days; read-out: Plant response rating, Blackgrass
pest or weed control at 500 g/ha values by entry

# molecule, result-units, pest or weed control at 500 g/ha
measured = [
    ("CCCCOc1c(Br)cccc1Oc1ncc(Cl)cn1 [Compound 13]", "%", 100),
    ("Fc1cccc(Oc2ncc(Cl)cn2)c1OCC(F)(F)F [Compound 28]", "%", 20),
    ("CCCCOc1c(C#N)cccc1Oc1ncc(Cl)cn1 [Compound 35]", "%", 90),
    ("N#Cc1cccc(Oc2ncc(Cl)cn2)c1OCC(F)(F)C(F)(F)F [Compound 10]", "%", 100),
    ("FC(F)C(F)(F)COc1c(Br)cccc1Oc1ncc(Cl)cn1 [Compound 18]", "%", 80),
]
